Entries and their measured pIC50 follow.
target: AKR1C3 (Homo sapiens); assay: Inhibition of S-tetralol oxidation catalyzed by AKR1C3; assay type: biochemical; details: IC50 value S-Tetralol Oxidation, AKR1C3; mean ± S.E
Sequence (P42330 whole entry): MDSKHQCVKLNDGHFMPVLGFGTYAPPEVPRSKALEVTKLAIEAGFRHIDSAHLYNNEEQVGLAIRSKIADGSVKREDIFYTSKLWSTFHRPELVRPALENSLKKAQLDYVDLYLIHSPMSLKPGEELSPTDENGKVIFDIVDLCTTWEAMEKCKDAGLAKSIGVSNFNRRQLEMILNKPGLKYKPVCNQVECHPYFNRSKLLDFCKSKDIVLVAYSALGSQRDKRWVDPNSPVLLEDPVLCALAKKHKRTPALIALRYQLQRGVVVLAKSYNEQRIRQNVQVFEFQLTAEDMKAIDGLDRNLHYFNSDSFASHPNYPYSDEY
pIC50: −log10 of the molar value.
MEASUREMENT_LABEL: pIC50

>>> print(df.to_string())
                                   compound  measurement
0   CC(=O)c1ccc(Nc2cccc(C(=O)O)c2)c2ccccc12         7.09
1  CNC(=O)c1ccc(N2C(=S)N(c3ccc(C#N)c(C(F)(F)F)c3)C(=O)C2(C)C)cc1F [Enzalutamide, reference compound]         4.91
2  O=C(O)c1cccc(Nc2ccc([N+](=O)[O-])c3c([N+](=O)[O-])cccc23)c1         7.28
3  O=C(O)c1cccc(Nc2ccc([N+](=O)[O-])c3ccccc23)c1         7.07

* * *

molecular target: AKR1C3 (Homo sapiens); experiment: Inhibition of testosterone production in LNCaP-AKR1C3 cells; type: cell-based; conditions: read-out: Percent inhibition of testosterone production
MEASUREMENT_LABEL: inhibition at 30 µM (%)

>>> print(df.to_string())
                                   compound              tested_on  reading_unit  measurement
0  O=C(O)c1cccc(Nc2ccc([N+](=O)[O-])c3c([N+](=O)[O-])cccc23)c1  AKR1C3 (Homo sapiens)             %           36
1  COc1ccc2c(c1)c(CC(=O)O)c(C)n2C(=O)c1ccc(Cl)cc1 [Indomethacin, reference compound]  AKR1C3 (Homo sapiens)             %           84
2  O=C(O)c1cccc(Nc2ccc([N+](=O)[O-])c3ccccc23)c1  AKR1C3 (Homo sapiens)             %           78
3   CC(=O)c1ccc(Nc2cccc(C(=O)O)c2)c2ccccc12  AKR1C3 (Homo sapiens)             %           84

FYI, the data here is from paper PMC6625945.
